Target: Rho-associated protein kinase 1 (Homo sapiens, UniProt Q13464)
Sequence (Q13464 whole entry): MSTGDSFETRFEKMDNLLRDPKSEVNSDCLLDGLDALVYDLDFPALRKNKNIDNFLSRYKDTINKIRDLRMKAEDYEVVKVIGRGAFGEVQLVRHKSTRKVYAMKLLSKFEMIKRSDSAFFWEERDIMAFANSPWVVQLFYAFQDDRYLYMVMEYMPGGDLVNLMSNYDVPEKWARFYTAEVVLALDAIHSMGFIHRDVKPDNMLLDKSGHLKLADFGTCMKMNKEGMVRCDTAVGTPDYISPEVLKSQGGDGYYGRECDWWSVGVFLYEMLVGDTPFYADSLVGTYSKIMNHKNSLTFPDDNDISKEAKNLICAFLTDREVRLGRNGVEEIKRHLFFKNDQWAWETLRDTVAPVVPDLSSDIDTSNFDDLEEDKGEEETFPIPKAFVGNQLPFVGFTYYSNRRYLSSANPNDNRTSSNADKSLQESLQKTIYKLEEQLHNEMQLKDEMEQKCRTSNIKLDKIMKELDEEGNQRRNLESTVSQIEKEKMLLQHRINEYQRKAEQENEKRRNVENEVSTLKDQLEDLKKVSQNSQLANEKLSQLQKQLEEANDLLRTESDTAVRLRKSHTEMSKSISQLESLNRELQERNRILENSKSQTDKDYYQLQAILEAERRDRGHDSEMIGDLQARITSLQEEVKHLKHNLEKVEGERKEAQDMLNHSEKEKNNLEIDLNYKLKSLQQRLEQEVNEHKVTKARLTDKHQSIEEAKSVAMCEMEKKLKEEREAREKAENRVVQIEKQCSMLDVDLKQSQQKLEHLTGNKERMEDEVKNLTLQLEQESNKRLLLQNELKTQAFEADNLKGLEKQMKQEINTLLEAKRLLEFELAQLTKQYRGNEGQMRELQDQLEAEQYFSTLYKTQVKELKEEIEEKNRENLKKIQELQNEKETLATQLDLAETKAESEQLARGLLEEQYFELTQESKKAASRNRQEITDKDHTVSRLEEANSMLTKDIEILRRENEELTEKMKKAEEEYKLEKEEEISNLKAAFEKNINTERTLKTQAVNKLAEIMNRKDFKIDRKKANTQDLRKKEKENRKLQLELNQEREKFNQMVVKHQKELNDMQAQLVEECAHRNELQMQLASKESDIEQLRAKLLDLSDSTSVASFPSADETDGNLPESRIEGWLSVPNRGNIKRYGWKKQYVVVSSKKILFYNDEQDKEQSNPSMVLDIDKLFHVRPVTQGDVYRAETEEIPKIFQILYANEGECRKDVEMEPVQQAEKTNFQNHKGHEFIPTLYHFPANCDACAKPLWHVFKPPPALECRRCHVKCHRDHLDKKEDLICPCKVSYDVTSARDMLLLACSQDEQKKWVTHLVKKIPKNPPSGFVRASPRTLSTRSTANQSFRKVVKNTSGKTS
Threshold 300 nM: IC50 strictly smaller gives Y, otherwise N.

IN: For this compound, is IC50 lower than 300 nM? O=C1C(NCc2ccccc2)CCN1c1ccc(-c2n[nH]c(=O)c3ccccc23)cc1 (stereo unspecified)
OUT: N

IN: For this compound, is IC50 lower than 300 nM? O=C1C(Oc2cccc(OC(F)(F)F)c2)CCN1c1ccc(-c2n[nH]c(=O)c3ccccc23)cc1 (stereo unspecified)
OUT: Y

IN: For this compound, is IC50 lower than 300 nM? O=C1OC(c2ccccc2)CN1c1ccc(-c2n[nH]c(=O)c3ccccc23)cc1 (stereo unspecified)
OUT: Y

IN: For this compound, is IC50 lower than 300 nM? COc1cccc(NC2CCN(c3ccc(-c4n[nH]c(=O)c5ccccc45)cc3)C2=O)c1 (stereo unspecified)
OUT: N

IN: For this compound, is IC50 lower than 300 nM? O=C1CC(c2ccccc2)CN1c1ccc(-c2n[nH]c(=O)c3ccccc23)cc1 (stereo unspecified)
OUT: N

IN: For this compound, is IC50 lower than 300 nM? O=C1C(Nc2cccc(OC(F)F)c2)CCN1c1ccc(-c2n[nH]c(=O)c3ccccc23)cc1 (stereo in doubt; 22)
OUT: Y

IN: For this compound, is IC50 lower than 300 nM? O=C1C(NC2CCCC2)CCN1c1ccc(-c2n[nH]c(=O)c3ccccc23)cc1 (stereo unspecified)
OUT: N

IN: For this compound, is IC50 lower than 300 nM? `O=C(Cc1ccc(-c2n[nH]c(=O)c3ccccc23)cc1)N1CCc2ccccc21`
OUT: N

IN: For this compound, is IC50 lower than 300 nM? O=C1C(Nc2cccc(OC(F)F)c2)CCN1c1ccc(-c2n[nH]c(=O)c3ccccc23)cc1 (racemic)
OUT: N

IN: For this compound, is IC50 lower than 300 nM? O=C1C(c2ccc(-c3n[nH]c(=O)c4ccccc34)cc2)CCN1c1ccccc1 (stereo unspecified)
OUT: N

IN: For this compound, is IC50 lower than 300 nM? `O=C1N(c2ccccc2)CCN1c1ccc(-c2n[nH]c(=O)c3ccccc23)cc1`
OUT: Y

* * *

Biological target: Rho-associated protein kinase 2 (Homo sapiens)
pIC50: −log10 of the molar value.
Short version: pIC50 at least 8 is MET, less is NOT MET.

IN: Dear colleague, could you confirm whether `O=C1N(Cc2ccccc2)CCN1c1ccc(-c2n[nH]c(=O)c3ccccc23)cc1` has pIC50 at or above 8?
OUT: NOT MET

IN: Dear colleague, could you confirm whether O=C1C(NCc2ccccc2)CCN1c1ccc(-c2n[nH]c(=O)c3ccccc23)cc1 (configuration not stated) has pIC50 at or above 8?
OUT: NOT MET

IN: Dear colleague, could you confirm whether O=C1C(Nc2cccc(OC(F)(F)F)c2)CCN1c1ccc(-c2n[nH]c(=O)c3ccccc23)cc1 (configuration not stated) has pIC50 at or above 8?
OUT: MET

IN: Dear colleague, could you confirm whether O=C1OC(c2ccccc2)CN1c1ccc(-c2n[nH]c(=O)c3ccccc23)cc1 (configuration not stated) has pIC50 at or above 8?
OUT: NOT MET

* * *

Exercise: for every item that follows, state its recorded pIC50.
Keep it numeric: pIC50 is minus log10 of the concentration in mol/L.

IN: Lab note: need pIC50 with Rho-associated protein kinase 2 (Homo sapiens, UniProt O75116) for entry Cc1nc2ccc(NC3CCN(c4ccc(-c5n[nH]c(=O)c6ccccc56)cc4)C3=O)cc2s1 (stereo not drawn) , please look it up.
Sequence (O75116 whole entry): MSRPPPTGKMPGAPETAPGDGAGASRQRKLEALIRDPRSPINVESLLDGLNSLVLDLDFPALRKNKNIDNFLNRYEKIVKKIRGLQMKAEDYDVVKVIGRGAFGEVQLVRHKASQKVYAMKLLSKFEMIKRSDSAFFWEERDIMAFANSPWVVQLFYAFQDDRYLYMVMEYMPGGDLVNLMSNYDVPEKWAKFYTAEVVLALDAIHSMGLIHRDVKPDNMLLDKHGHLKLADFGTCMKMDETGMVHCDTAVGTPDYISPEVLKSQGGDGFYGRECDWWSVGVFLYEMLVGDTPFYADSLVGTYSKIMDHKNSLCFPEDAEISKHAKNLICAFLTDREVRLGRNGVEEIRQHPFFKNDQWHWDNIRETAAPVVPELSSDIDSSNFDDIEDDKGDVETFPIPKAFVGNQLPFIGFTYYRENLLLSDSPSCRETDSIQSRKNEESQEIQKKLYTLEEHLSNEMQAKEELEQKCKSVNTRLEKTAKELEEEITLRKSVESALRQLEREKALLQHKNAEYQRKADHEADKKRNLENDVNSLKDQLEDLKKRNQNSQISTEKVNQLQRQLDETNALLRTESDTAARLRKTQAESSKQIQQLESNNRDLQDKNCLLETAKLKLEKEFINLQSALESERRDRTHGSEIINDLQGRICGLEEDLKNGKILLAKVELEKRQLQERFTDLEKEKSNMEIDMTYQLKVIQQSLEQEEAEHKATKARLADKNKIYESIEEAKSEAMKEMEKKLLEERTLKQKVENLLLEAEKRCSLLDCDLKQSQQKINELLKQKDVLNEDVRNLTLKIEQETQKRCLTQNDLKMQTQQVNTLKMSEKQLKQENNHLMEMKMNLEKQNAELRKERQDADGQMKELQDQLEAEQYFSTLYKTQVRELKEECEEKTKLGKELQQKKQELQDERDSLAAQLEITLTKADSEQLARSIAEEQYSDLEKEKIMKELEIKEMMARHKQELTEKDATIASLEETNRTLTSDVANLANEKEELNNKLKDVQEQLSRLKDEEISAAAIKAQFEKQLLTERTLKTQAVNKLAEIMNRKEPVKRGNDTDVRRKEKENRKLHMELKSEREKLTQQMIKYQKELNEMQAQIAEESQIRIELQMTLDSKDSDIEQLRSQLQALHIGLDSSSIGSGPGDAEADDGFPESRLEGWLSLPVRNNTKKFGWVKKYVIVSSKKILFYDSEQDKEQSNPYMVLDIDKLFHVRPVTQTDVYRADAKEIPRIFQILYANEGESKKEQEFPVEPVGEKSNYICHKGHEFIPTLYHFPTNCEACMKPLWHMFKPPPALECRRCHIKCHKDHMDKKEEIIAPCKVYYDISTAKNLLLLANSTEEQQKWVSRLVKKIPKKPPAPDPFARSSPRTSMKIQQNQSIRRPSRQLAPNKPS
OUT: 8.13

IN: Lab note: need pIC50 with Rho-associated protein kinase 2 (Homo sapiens, UniProt O75116) for entry `O=C(Cc1ccc(-c2n[nH]c(=O)c3ccccc23)cc1)N1CCc2ccccc21` , please look it up.
OUT: 8.15

IN: Lab note: need pIC50 with Rho-associated protein kinase 2 (Homo sapiens, UniProt O75116) for entry O=C1C(Oc2cccc(OC(F)(F)F)c2)CCN1c1ccc(-c2n[nH]c(=O)c3ccccc23)cc1 (stereo not drawn) , please look it up.
OUT: 8.20
